EC50: recorded values
# Test system: HBV in 2.2.15 cells
# assay-notes: 2.2.15 cells: viral product in cell lysates quantified via quantitative real time PCR
# Assay type: cell-based, hepatitis B virus (HBV)
# assay-setup: Hepatitis B virus, 120 h, day 5 post treatment, 50% reduction of viral product vs no drug controls, readout (qPCR, HBsAg or HBeAg) not specified for the column
measurement-label: EC50

>  <compound-structure-string>
CC(C)(C)[C@@H]1Cn2nc(C3CC3)c(-c3ccnnc3)c2-c2cc(=O)c(C(=O)O)cn21

>  <recorded-value>
0.2 to 1 µM

$$$$
>  <compound-structure-string>
CC(C)[C@@H]1Cn2nc(-c3ccncc3)c(-c3ccncc3)c2-c2c(F)c(=O)c(C(=O)O)cn21

>  <recorded-value>
0.2 to 1 µM

$$$$
>  <compound-structure-string>
CC(C)(C)[C@@H]1Cn2nc(-c3ccc(F)c(F)c3F)cc2-c2cc(=O)c(C(=O)O)cn21

>  <recorded-value>
< 0.1 µM

$$$$
>  <compound-structure-string>
CC(C)[C@@H]1Cn2nc(-c3ccc(F)cc3)c(-c3ccc(F)cc3)c2-c2c(F)c(=O)c(C(=O)O)cn21

>  <recorded-value>
< 0.1 µM

$$$$
>  <compound-structure-string>
CCOc1cccc(F)c1-c1cc2n(n1)C[C@@H](C(C)(C)C)n1cc(C(=O)O)c(=O)cc1-2

>  <recorded-value>
< 0.1 µM

$$$$
>  <compound-structure-string>
CC(C)[C@@H]1Cn2nc(C3CC3)c(-c3cncc(F)c3)c2-c2cc(=O)c(C(=O)O)cn21

>  <recorded-value>
< 0.1 µM

$$$$
>  <compound-structure-string>
CC(C)[C@@H]1Cn2nc(-c3cccc(O)c3)c(-c3cccc(O)c3)c2-c2c(F)c(=O)c(C(=O)O)cn21

>  <recorded-value>
0.2 to 1 µM

$$$$

The reported measurements were obtained from patent US12264159B2.
